The reported numbers originate from ChEMBL document CHEMBL4673367.

Tgt: Bifunctional epoxide hydrolase 2 (Mus musculus)
Sequence (P34914 whole entry): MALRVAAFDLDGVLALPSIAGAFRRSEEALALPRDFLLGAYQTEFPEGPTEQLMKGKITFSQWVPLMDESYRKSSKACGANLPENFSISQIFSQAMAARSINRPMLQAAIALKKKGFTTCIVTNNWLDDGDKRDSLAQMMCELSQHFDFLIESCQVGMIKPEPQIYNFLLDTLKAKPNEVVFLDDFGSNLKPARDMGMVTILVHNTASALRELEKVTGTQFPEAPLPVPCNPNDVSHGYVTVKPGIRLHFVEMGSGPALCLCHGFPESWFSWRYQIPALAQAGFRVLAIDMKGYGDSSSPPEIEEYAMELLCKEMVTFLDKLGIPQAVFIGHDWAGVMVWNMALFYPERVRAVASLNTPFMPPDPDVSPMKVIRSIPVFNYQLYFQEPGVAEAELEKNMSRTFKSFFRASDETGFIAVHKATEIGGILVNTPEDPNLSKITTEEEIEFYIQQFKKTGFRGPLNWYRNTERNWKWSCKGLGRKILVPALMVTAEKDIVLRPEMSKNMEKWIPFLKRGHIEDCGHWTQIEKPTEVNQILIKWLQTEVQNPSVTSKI
Method Summary: Inhibition of recombinant mouse sEH expressed in baculovirus expression system using MNPC as substrate by fluorescence-based assay
Metric: IC50 (nM)

Please review the entries below; each comes with its answer.
Structure String: CCCCC/C=C\C/C=C\CCCCCCCC(=O)NCc1cccc(OC)c1
IC50 / nM: 38
--
Structure String: CCCCC/C=C\C/C=C\CCCCCCCC(=O)NCc1ccc(OC)c(OC)c1
IC50 / nM: 148
--
Structure String: CC/C=C\C/C=C\C/C=C\CCCCCCCC(=O)NCc1ccccc1
IC50 / nM: 28
--
Structure String: CCCCCCCCCCCCCCCC(=O)NCc1ccccc1
IC50 / nM: 422
--
Structure String: CCCCCCCC/C=C\CCCCCCCC(=O)NCc1ccccc1
IC50 / nM: 265

(I) CCCCCCCCCCCCCCCCCC(=O)NCc1cccc(OC)c1
(II) CCCCCCCCCCCCCCCC(=O)NCc1cccc(OC)c1
(III) CCCCC/C=C\C/C=C\CCCCCCCC(=O)NCc1ccccc1
Rank the items in ascending order with respect to IC50. A ranking is expressed here by listing the labels in the requested order.
III, II, I

(1) CC/C=C\C/C=C\C/C=C\CCCCCCCC(=O)NCc1ccc(OC)c(OC)c1
(2) CCCCCCCCCCCCCCCCCC(=O)NCc1ccccc1
(3) CC/C=C\C/C=C\C/C=C\CCCCCCCC(=O)NCc1cccc(OC)c1
(4) CC/C=C\C/C=C\C/C=C\CCCCCCCC(=O)NCCc1ccccc1
Rank the items in ascending order with respect to IC50. A ranking is expressed here by listing the labels in the requested order.
3, 4, 1, 2

----------
Tgt: Bifunctional epoxide hydrolase 2 (Homo sapiens)
Method Summary: Inhibition of recombinant human sEH expressed in baculovirus expression system using MNPC as substrate by fluorescence-based assay
pIC50: −log10 of the molar value.
Metric: pIC50

Structure String: CCCCC/C=C\C/C=C\CCCCCCCC(=O)NCc1cccc(OC)c1
pIC50: 7.04

Structure String: CC/C=C\C/C=C\C/C=C\CCCCCCCC(=O)NCCc1ccccc1
pIC50: 7.82

Structure String: CCCCCCCCCCCCCCCC(=O)NCc1ccccc1
pIC50: 6.28

(a) CCCCCCCC/C=C\CCCCCCCC(=O)NCc1cccc(OC)c1
(b) CCCCCCCC/C=C\CCCCCCCC(=O)NCc1ccccc1
Endpoint returns the identifier whose pIC50 is numerically larger, either a or b . Respond using the label that marks the chosen record.
a
(a: 6.62, b: 6.05)

----------
Tgt: Bifunctional epoxide hydrolase 2 (Rattus norvegicus)
Sequence (P80299 whole entry): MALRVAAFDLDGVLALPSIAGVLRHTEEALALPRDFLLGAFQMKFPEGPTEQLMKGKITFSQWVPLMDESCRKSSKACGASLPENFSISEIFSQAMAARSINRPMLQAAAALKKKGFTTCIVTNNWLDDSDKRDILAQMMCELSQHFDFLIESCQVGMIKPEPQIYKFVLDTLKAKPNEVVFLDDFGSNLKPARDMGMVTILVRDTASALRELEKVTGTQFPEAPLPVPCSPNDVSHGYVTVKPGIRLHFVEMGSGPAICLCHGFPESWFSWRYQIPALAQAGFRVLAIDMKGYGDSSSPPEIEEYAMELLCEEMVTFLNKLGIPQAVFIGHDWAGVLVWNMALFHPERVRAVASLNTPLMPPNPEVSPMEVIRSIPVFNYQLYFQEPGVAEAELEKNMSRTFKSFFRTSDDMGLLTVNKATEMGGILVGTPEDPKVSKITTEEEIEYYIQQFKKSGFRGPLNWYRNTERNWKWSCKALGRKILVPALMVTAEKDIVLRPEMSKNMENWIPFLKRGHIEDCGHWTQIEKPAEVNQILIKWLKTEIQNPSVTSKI
Method Summary: Inhibition of recombinant rat sEH expressed in baculovirus expression system using MNPC as substrate by fluorescence-based assay
Metric: IC50 (µM)

Please review the entries below; each comes with its answer.
Structure String: CC/C=C\C/C=C\C/C=C\CCCCCCCC(=O)NCCc1ccccc1
IC50 (µM): 0.015
//
Structure String: CC/C=C\C/C=C\C/C=C\C/C=C\C/C=C\CCCC(=O)NCc1cccc(OC)c1
IC50 (µM): 0.0186
//
Structure String: CCCCC/C=C\C/C=C\CCCCCCCC(=O)NCc1cccc(OC)c1
IC50 (µM): 0.043
//
Structure String: CCCCCCCCCCCCCCCC(=O)NCc1ccc(OC)c(OC)c1
IC50 (µM): 15.9

(1) CCCCCCCC/C=C\CCCCCCCC(=O)NCc1cccc(OC)c1
(2) CC/C=C\C/C=C\C/C=C\CCCCCCCC(=O)NCc1cccc(OC)c1
Endpoint returns the identifier whose IC50 is numerically larger, either 1 or 2 . Respond using the label that marks the chosen record.
1
(1: 0.084 µM, 2: 0.0093 µM)

----------
Tgt: Bifunctional epoxide hydrolase 2 (Homo sapiens, UniProt P34913)
Sequence (P34913 whole entry): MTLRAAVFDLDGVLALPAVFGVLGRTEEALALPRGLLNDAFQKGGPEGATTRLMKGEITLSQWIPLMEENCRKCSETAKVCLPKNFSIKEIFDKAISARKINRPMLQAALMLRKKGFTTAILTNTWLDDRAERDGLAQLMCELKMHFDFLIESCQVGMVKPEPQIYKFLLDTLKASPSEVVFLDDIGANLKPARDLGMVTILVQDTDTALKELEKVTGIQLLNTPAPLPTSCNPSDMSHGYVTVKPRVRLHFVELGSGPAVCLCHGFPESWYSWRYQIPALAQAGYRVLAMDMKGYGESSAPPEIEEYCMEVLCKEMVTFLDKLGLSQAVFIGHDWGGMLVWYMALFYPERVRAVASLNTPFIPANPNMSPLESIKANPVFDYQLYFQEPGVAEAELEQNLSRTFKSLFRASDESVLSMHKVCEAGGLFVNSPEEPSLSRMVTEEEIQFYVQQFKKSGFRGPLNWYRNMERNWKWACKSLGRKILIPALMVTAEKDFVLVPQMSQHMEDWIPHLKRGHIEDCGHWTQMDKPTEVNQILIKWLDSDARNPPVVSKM
Method Summary: Inhibition of recombinant human sEH expressed in baculovirus expression system using MNPC as substrate by fluorescence-based assay
pIC50: −log10 of the molar value.
Metric: pIC50

Please review the entries below; each comes with its answer.
Structure String: CCCCCCCCCCCCCCCC(=O)NCc1cccc(OC)c1
pIC50: 6.63
//
Structure String: CCCCC/C=C\C/C=C\C/C=C\C/C=C\CCCC(=O)NCc1cccc(OC)c1
pIC50: 7.26

(A) CCCCC/C=C\C/C=C\CCCCCCCC(=O)NCc1ccccc1
(B) CCCCCCCCCCCCCCCC(=O)NCc1ccc(OC)c(OC)c1
(C) CC/C=C\C/C=C\C/C=C\CCCCCCCC(=O)NCc1ccc(OC)c(OC)c1
// sort entries: pIC50, high to low A ranking is expressed here by listing the labels in the requested order.
C, A, B

----------
Tgt: Bifunctional epoxide hydrolase 2 (Rattus norvegicus)
Method Summary: Inhibition of recombinant rat sEH expressed in baculovirus expression system using MNPC as substrate by fluorescence-based assay
pIC50: −log10 of the molar value.
Metric: pIC50

Structure String: CCCCC/C=C\C/C=C\CCCCCCCC(=O)NCc1ccc(OC)c(OC)c1
pIC50: 6.95

Structure String: CCCCCCCCCCCCCCCC(=O)NCc1cccc(OC)c1
pIC50: 6.95

Structure String: CC/C=C\C/C=C\C/C=C\CCCCCCCC(=O)NCc1ccc(OC)c(OC)c1
pIC50: 7.05

----------
Tgt: Bifunctional epoxide hydrolase 2 (Mus musculus)
Method Summary: Inhibition of recombinant mouse sEH expressed in baculovirus expression system using MNPC as substrate by fluorescence-based assay
pIC50: −log10 of the molar value.
Metric: pIC50

Structure String: CCCCCCCC/C=C\CCCCCCCC(=O)NCc1cccc(OC)c1
Metric: pIC50
Meas Value: 6.90
//
Structure String: CCCCC/C=C\C/C=C\CCCCCCCC(=O)NCCc1ccccc1
Metric: pIC50
Meas Value: 7.04
//
Structure String: CC/C=C\C/C=C\C/C=C\C/C=C\C/C=C\CCCC(=O)NCc1cccc(OC)c1
Metric: pIC50
Meas Value: 7.31
//
Structure String: CCCCC/C=C\C/C=C\C/C=C\C/C=C\CCCC(=O)NCc1cccc(OC)c1
Metric: pIC50
Meas Value: 7.14
//
Structure String: CCCCC/C=C\C/C=C\C/C=C\C/C=C\CCCC(=O)NCc1ccccc1
Metric: pIC50
Meas Value: 7.30
//
Structure String: CC/C=C\C/C=C\C/C=C\C/C=C\C/C=C\CCCC(=O)NCc1ccccc1
Metric: pIC50
Meas Value: 7.37
